# Tested on: rabbit aortic smooth muscle
# assay-comment: Ca+2 antagonism: relaxation of KCl-depolarised rabbit thoracic aorta strips
# Type: cell-based
# condition-description: Oryctolagus cuniculus, 20 min; test compound 1 x 10^-5 M; 100 mM KCl contracted aortic strips; 20 min after addition; mean of two experiments; read-out: percent relaxation (P. R.)
Below: a set of entries, each annotated with reported inhibition at 10 µM.

>  <smiles-str>
COc1cc(OC)cc(N(C(C)C)S(=O)(=O)CCCN(C)CCc2ccc(OC)c(OC)c2)c1

>  <tested-system>
rabbit aortic smooth muscle

>  <inhibition at 10 µM, %>
90

$$$$
>  <smiles-str>
COc1ccc(CCN(C)CCCS(=O)(=O)N(c2cc(Cl)cc(Cl)c2)C(C)C)cc1OC

>  <tested-system>
rabbit aortic smooth muscle

>  <inhibition at 10 µM, %>
86

$$$$
>  <smiles-str>
COc1ccc(CCN(C)CCCS(=O)(=O)Nc2cccc(C(F)(F)F)c2)cc1OC

>  <tested-system>
rabbit aortic smooth muscle

>  <inhibition at 10 µM, %>
51

$$$$
>  <smiles-str>
COc1ccc(CCN(C)CCCS(=O)(=O)N(c2ccc(OC)c(OC)c2)C(C)C)cc1OC

>  <tested-system>
rabbit aortic smooth muscle

>  <inhibition at 10 µM, %>
74

$$$$
>  <smiles-str>
COc1ccc(CCN(C)CCCCN(C(C)C)S(=O)(=O)c2ccc(Cl)c(Cl)c2)cc1OC

>  <tested-system>
rabbit aortic smooth muscle

>  <inhibition at 10 µM, %>
68

$$$$
